# Assayed target: Inadl_2, Q8NI35
# Sequence (Q8NI35 238-335): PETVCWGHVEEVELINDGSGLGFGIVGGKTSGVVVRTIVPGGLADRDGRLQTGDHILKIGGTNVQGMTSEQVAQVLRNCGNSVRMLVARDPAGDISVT
# Assay info: holdup assay
# Parameters: key: below the threshold = too weak to quantify, mostly under pKd 3.1 to 4
# Experimental setup: plain residues with an end cap or a label only (N-terminal biotin on a linker: ado-ado)
Quantity name: pKd

Recorded results for 8 binders are shown here.
AEASVACSLC [PTGIR, P43119] = below the threshold
ELSATVTTDC [TRIP6, Q15654] = below the threshold
SFISKKEWYV [NECTIN1, Q15223] = 4.8
EPQYQPGENL [SRC, P12931] = below the threshold
DPAESMESLV [PTPRG, P23470] = 3.5
SVTSERETNI [SLC16A7, O60669] = below the threshold
REEPDHSTEV [CCRL2, O00421] = below the threshold
PYPTADHMLA [JUP, P14923] = below the threshold

Find the measured pKd of DDASLPVSDV [PLEKHA1, Q9HB21] and report it.
below the threshold

Find the measured pKd of SRSVVESDEL [MYPN, Q86TC9] and report it.
below the threshold

Find the measured pKd of KSRVAFFEEL [NF2, P35240;P35240-1] and report it.
below the threshold

Find the measured pKd of IDESKKEWLI [CNTNAP2, Q9UHC6] and report it.
4.67

Find the measured pKd of LAHVKHKEQI [AQP3, Q92482] and report it.
below the threshold

Find the measured pKd of APIAGFSSFV [SDK2, Q58EX2] and report it.
below the threshold

The measured values listed here are drawn from paper PMC9482650.
